# target or test system: His6-tagged HIV-1 integrase / flag-LEDGF/p75 interaction (Human immunodeficiency virus type 1 group M subtype B, UniProt P04585)
# Construct: His6-tagged HIV-1 integrase
# protocol text: AlphaScreen assay of LEDGF-integrase interaction inhibition
# measurement parameters: compounds tested from 0.1 up to 100 μM
outcome measure: IC50 (µM)
Numeric answer only, unit µM assumed.

CCCC(C(=O)O)c1c(C)nc(-c2ccccc2)nc1-c1ccc2occc2c1 (stereo not drawn) :: 14.7
CCCC(C(=O)O)c1c(C)nc(N2CCCC(C(=O)NCC(C)C)C2)nc1-c1ccc(C)cc1 (stereo not drawn) :: 10.9
CCCC(C(=O)O)c1c(C)nc(N2CCN(C)CC2)nc1-c1ccc(C)cc1 (stereo not drawn) :: 53.7
CCCC(C(=O)O)c1c(C)nc(N2CCCC2)nc1-c1ccc(C)cc1 (stereo not drawn) :: 4.61

Q. Look up IC50 for this molecule: CCCC(C(=O)O)c1c(C)nc(N2CCCCC2)nc1-c1ccc(OC)cc1F (stereo not drawn)
A. 20.7

Q. Look up IC50 for this molecule: CCCC(C(=O)O)c1c(C)nc(N2CCCCC2)nc1-c1ccc(C)cc1Cl (stereo not drawn)
A. 5.92

###

# protocol text: Cytotoxicity in mock-infected MT-4 cells (MTT)
# Type: cell-based
# measurement parameters: human, read-out: CC50 in MT4-IIIB (μm)
outcome measure: CC50 (µM)
Numeric answer only, unit µM assumed.

Use these answered entries as a reference point.
CCCC(C(=O)O)c1c(C)nc(-c2ccccc2)nc1-c1ccc2c(c1)OCCN2C (stereo not shown) :: 118
CCCC(C(=O)O)c1c(C)nc(-c2ccccc2)nc1-c1ccc2ccccc2c1 (stereo not shown) :: 53
CCCC(C(=O)O)c1c(C)nc(/C=C/c2ccccc2)nc1-c1ccccc1 (stereo not shown) :: 98.7

Q. Look up CC50 for this molecule: CCCC(C(=O)O)c1c(C)nc(N2CCCC(C)C2)nc1-c1ccc(C)cc1 (stereo not shown)
A. 120

Q. Look up CC50 for this molecule: Cc1ccc(-c2nc(N3CCCCC3)nc(C)c2C(Cc2ccccc2)C(=O)O)cc1 (stereo not shown)
A. 67

###

Overview of recorded CC50 for various compounds
# protocol text: Cytotoxicity in mock-infected MT-4 cells (MTT)
# Assay type: cell-based
# measurement parameters: human, read-out: CC50 in MT4-IIIB (μm)
Numeric answer only, unit µM assumed.

Q. Look up CC50 for this compound: CCCC(C(=O)O)c1c(C)nc(-c2ccc(C)cc2)nc1-c1ccc(C)cc1 (stereo not drawn) [cpd 10]
A. 110

Q. Look up CC50 for this compound: CCCC(C(=O)O)c1c(C)nc(N2CCCCC2)nc1-c1cc(F)c(F)cc1F (stereo not drawn) [cpd 142]
A. 79

Q. Look up CC50 for this compound: CCCC(C(=O)O)c1c(C)nc(-c2ccccc2)nc1-c1ccc2c(c1)CCCO2 (stereo not drawn) [cpd 90]
A. 125

Q. Look up CC50 for this compound: CCCC(C(=O)O)c1c(C)nc(-c2ccccc2)nc1N1CCc2ccccc2C1 (stereo not drawn) [cpd 76]
A. 74

Q. Look up CC50 for this compound: CCCC(C(=O)O)c1c(C)nc(-c2ccccc2)nc1-c1ccc(C)c(C)c1 (stereo not drawn) [cpd 66]
A. 120

###

# protocol text: Cytotoxicity in mock-infected MT-4 cells (MTT)
# Assay type: cell-based
# measurement parameters: human, read-out: CC50 in MT4-IIIB (μm)
outcome measure: CC50

Use these answered entries as a reference point.
CCCC(C(=O)O)c1c(C)nc(-c2ccccc2)nc1-c1ccccc1 (stereo not drawn) :: > 125 µM
CCCC(C(=O)O)c1c(C)nc(-c2ccccc2Cl)nc1-c1ccccc1 (stereo not drawn) :: > 250 µM

Now consider a different compound.
Q. Look up CC50 for this compound: CCCC(C(=O)O)c1c(C)nc(N2CCN(C)CC2)nc1-c1ccc(C)cc1 (stereo not drawn)
A. > 250 µM

###

# protocol text: Cytotoxicity in mock-infected MT-4 cells (MTT)
# Type: cell-based
# measurement parameters: human, read-out: CC50 in MT4-IIIB (μm)
outcome measure: CC50

Use these answered entries as a reference point.
CCCC(C(=O)O)c1c(C)nc(-c2ccccc2)nc1N1CCN(C)CC1 (stereo not drawn) :: > 250 µM
CCCC(C(=O)O)c1c(C)nc(N2CCCN(CC)CC2)nc1-c1ccc(C)cc1 (stereo not drawn) :: > 250 µM

Q. Look up CC50 for this compound: CCCC(C(=O)O)c1c(C)nc(-c2ccccc2)nc1Cc1ccccc1 (stereo not drawn)
A. > 250 µM

###

Overview of recorded CC50 for various compounds
# protocol text: Cytotoxicity in mock-infected MT-4 cells (MTT)
# Format: cell-based
# measurement parameters: human, read-out: CC50 in MT4-IIIB (μm)
Numeric answer only, unit µM assumed.

CCCC(C(=O)O)c1c(C)nc(-c2ccccc2)nc1-c1ccc(Cl)cc1OC (stereo not shown) [cpd 110] :: 94

Now consider a different compound.
Q. Look up CC50 for this compound: CCCC(C(=O)O)c1c(C)nc(N(C)C2CCCCC2)nc1-c1ccc(C)cc1 (stereo not shown) [cpd 12]
A. 81.8

###

Overview of recorded CC50 for various compounds
# protocol text: Cytotoxicity in mock-infected MT-4 cells (MTT)
# Format: cell-based
# measurement parameters: human, read-out: CC50 in MT4-IIIB (μm)
Numeric answer only, unit µM assumed.

Q. Look up CC50 for this compound: CCCC(C(=O)O)c1c(C)nc(N2CCCC(c3nc(C(C)C)no3)C2)nc1-c1ccc(C)cc1 (centres unmarked) [cpd 46]
A. 42

Q. Look up CC50 for this compound: CCCC(C(=O)O)c1c(C)nc(-c2ccccc2)nc1-c1ccc(Cl)cc1O (centres unmarked) [cpd 111]
A. 97

Q. Look up CC50 for this compound: CCCC(C(=O)O)c1c(C)nc(N2CCCC2)nc1-c1ccc(C)cc1 (centres unmarked) [cpd 30]
A. 143

Q. Look up CC50 for this compound: CCCC(C(=O)O)c1c(C)nc(-c2ccccc2)nc1-c1ccc2c(ccn2C)c1 (centres unmarked) [cpd 74]
A. 129

Q. Look up CC50 for this compound: CCCC(C(=O)O)c1c(C)nc(N2CCC(NC(=O)c3ccccc3)CC2)nc1-c1ccc(C)cc1 (centres unmarked) [cpd 54]
A. 67

###

# protocol text: Cytotoxicity in mock-infected MT-4 cells (MTT)
# Type: cell-based
# measurement parameters: human, read-out: CC50 in MT4-IIIB (μm)
outcome measure: CC50

COCCC(C(=O)O)c1c(C)nc(N2CCCCC2)nc1-c1ccc(C)cc1 (stereo not drawn) :: > 250 µM
CCCC(C(=O)O)c1c(C)nc(N2CCc3ccccc32)nc1-c1ccc(C)cc1 (stereo not drawn) :: 38.7 µM
CCCC(C(=O)O)c1c(C)nc(-c2ccccc2Cl)nc1-c1ccc(C)cc1 (stereo not drawn) :: 125 µM

Q. Look up CC50 for this compound: CCCC(C(=O)O)c1c(C)nc(-c2ccccc2)nc1-c1ccc(C)cc1F (stereo not drawn)
A. 113 µM

Q. Look up CC50 for this compound: CCCC(C(=O)O)c1c(C)nc(N2CCCC(Oc3ccccc3)C2)nc1-c1ccc(C)cc1 (stereo not drawn)
A. 25 µM

Q. Look up CC50 for this compound: CCCC(C(=O)O)c1c(C)nc(-c2ccccc2)nc1-c1ccc2occc2c1 (stereo not drawn)
A. 110 µM
